Please respond with reported SPOT intensity for every item in the list.
- tgt: T1, Abp1, P15891
- T1 sequence (P15891 535-592, looked up): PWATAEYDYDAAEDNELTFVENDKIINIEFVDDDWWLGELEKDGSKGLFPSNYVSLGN
- measurement_protocol: SPOT array
- setup_conditions: median of control spots 935
I only need the number, thanks.

Input TYNRTAFQIPGDQSI . Output SPOT intensity: 0

Input FHLNPKRSAVLYDRP . Output SPOT intensity: 24

Input RRLRDKYKLPIVDAD . Output SPOT intensity: 18

Input RRRDFGAPANKRPRR . Output SPOT intensity: 165

Measured values drawn from paper PMC2756588 for this set.
